System: RXRa DBDmut IVT, anti-RXR (DBD mutation: RXRa K156A/R161A, NR concentration 90 nM)
Test: PBM binding z-score (relative to random genomic background probes); higher = stronger binding; sequences stand for … in GC…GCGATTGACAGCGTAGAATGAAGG
Rule: PBM binding z-score of 0.6 or more gives Condition met; anything lower gives Condition not met.

Could you please find out whether "GCAATTAGTTGAAAGGGCAACCGAATGATTCTCG" has PBM binding z-score that meets 0.6 or exceeds it?
Condition met

Here is the next sequence: "CCTGCTAGGTCAATAGTCAGCTAAAGCAGCTCGC"
Condition met

Moving on to the next sequence: "CAAACTAGGTCAAGAGGGCAAAGTCCGCTTCCCG"
Condition met

Now consider "CGAACTAGGTCAGAACAGAACAGTGAAGGATGAT" .
Condition not met

Please give the result for "ATCTCTAGGTAAATATAGTTCAGTGAATGCAAAT" too.
Condition not met

Proceed to "ACAGACAGGTGATGAAGGTAACTCGGGCTATCAT"
Condition not met

The reported numbers originate from the supplement of paper PMC6555819.
